Values were extracted from patent US20220056052A1.

# ASSAY_SYSTEM: ENPP1 (Homo sapiens, UniProt P22413)
# EXPERIMENTAL_DETAILS: Measurement of 2′3′-cGAMP hydrolysis by ENPP1 (AMP-Glo)
Structures can show the parent of a compound that is named as a salt.
EXPERIMENTAL_READOUT: Ki

# COMPOUND, REPORTED_MEASUREMENT
records = [
    ("COc1cc2ncnc(NCc3cccc(B(O)O)c3)c2cc1OC", "< 1 nM"),
    ("COc1cc2ncnc(OCc3ccc4c(c3)B(O)OC4)c2cc1OC", "< 5 nM"),
    ("COc1cc2ncnc(N3CCC(CCCB(O)O)CC3)c2cc1OC", "< 1 nM"),
]

For every item in the list below, what is its measured Ki?
1. COc1cc2ncnc(N3CCC(CP(=O)(O)O)CC3)c2cc1OC
2. COc1cc2ncnc(Nc3ccc4c(c3)COB4O)c2cc1OC
3. COc1cc2ncnc(NCc3ccc(B(O)O)cc3)c2cc1OC [Cpd. 7, formic acid salt]
4. COc1cc2ncnc(OCc3ccc4c(c3)COB4O)c2cc1OC
5. COc1cc2ncnc(N3CCC(CCCP(=O)(O)O)CC3)c2cc1OC
6. COc1cc2ncnc(NCC3CCN(S(N)(=O)=O)CC3)c2cc1OC
7. COc1cc2ncnc(NCc3ccc(P(=O)(O)O)cc3)c2cc1OC
8. COc1cc2ncnc(NCc3ccc(B(O)O)cn3)c2cc1OC

Ans:
1. < 5 nM
2. < 10 nM
3. < 1 nM
4. < 10 nM
5. < 1 nM
6. < 5 nM
7. < 5 nM
8. < 10 nM

Q: Give the reported Ki for `COc1cc2ncnc(OCc3ccc(B(O)O)cc3)c2cc1OC` (system: ENPP1 (Homo sapiens, UniProt P22413)).
Ans: < 1 nM

---

# ASSAY_SYSTEM: ENPP1 (Homo sapiens)
# Sequence (P22413 1-925): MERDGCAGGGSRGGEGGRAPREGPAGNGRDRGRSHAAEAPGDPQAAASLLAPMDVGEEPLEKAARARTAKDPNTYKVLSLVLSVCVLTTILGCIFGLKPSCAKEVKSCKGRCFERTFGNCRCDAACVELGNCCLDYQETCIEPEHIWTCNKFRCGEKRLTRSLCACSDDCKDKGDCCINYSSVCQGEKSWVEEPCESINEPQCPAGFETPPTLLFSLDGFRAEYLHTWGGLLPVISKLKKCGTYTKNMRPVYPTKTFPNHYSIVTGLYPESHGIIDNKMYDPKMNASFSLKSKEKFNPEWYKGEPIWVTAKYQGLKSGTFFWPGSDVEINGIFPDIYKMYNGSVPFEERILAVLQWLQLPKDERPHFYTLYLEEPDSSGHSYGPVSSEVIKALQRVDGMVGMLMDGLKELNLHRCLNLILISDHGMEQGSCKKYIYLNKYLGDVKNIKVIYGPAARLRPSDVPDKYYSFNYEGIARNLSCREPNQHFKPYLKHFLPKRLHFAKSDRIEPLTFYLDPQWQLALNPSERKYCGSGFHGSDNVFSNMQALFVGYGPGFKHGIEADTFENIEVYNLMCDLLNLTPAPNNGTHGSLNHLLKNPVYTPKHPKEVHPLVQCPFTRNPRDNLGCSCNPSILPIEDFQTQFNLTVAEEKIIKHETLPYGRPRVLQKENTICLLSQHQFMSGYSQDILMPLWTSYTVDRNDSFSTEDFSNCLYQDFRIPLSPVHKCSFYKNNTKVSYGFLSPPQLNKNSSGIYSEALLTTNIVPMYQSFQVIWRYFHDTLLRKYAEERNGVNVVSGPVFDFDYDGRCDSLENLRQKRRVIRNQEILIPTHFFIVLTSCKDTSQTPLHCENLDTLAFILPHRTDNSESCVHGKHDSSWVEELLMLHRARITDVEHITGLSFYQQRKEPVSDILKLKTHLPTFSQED
# EXPERIMENTAL_DETAILS: Measurement of pNP-TMP hydrolysis by ENPP1
# Assay type: biochemical
# ASSAY_CONDITIONS: substrate pNP-TMP, (S) 500 μM, KM 232 μM; Ki from IC50 by Cheng-Prusoff
Structures can show the parent of a compound that is named as a salt.
EXPERIMENTAL_READOUT: Ki

For each of the compounds below, state Ki.
1. COc1cc2ncnc(NCc3c(F)cc(B(O)O)cc3F)c2cc1OC [compound 24, hydrochloride]
2. COc1cc2ncnc(NCc3ccc(B(O)O)cc3F)c2cc1OC [compound 11, formic acid salt]
3. COc1ccc2c(NCc3ccc(P(=O)(O)O)cc3)ncnc2c1 [compound 41, formic acid salt]
4. COc1cc2ncnc(-c3ccc(COS(N)(=O)=O)cc3)c2cc1OC [Cpd. 17]

Ans:
< 10 nM
< 10 nM
< 5 nM
< 1 nM

For each of the compounds below, note its Ki.
1. COc1ccc2c(NCc3ccc(B(O)O)cc3)ncnc2c1 [compound 30]
2. COc1cc2ncnc(N3CCC(CCCP(=O)(O)O)CC3)c2cc1OC [compound 6]
3. COc1cc2ncnc(OCc3ccc(B(O)O)cc3)c2cc1OC [compound 19]
4. COc1cc2ncnc(NCc3cccc(B(O)O)c3)c2cc1OC [compound 12]

Ans:
1. < 5 nM
2. < 5 nM
3. < 5 nM
4. < 10 nM

Q: Entry COc1cc2ncnc(NCc3ccc(B(O)O)cc3)c2cc1OC [Cpd. 7, formic acid salt] , system ENPP1 (Homo sapiens): what Ki was measured?
Ans: < 10 nM
